Test system: K. oxytoca GN10650
Assay: in vitro antibacterial activity, agar plate dilution method (MIC)
Format: cell-based
Conditions: Klebsiella oxytoca, GN10650, 16 h, read-out: Minimum Inhibitory Concentration (MIC), *K. oxytoca GN10650, lactamase-producing strain; 10^6 CFU/ml
For each of the molecules below, state its MIC.
Answer format: numeric, µg/mL implied, no suffix.

Could you share what MIC was measured for `Nc1nc(/C(=N/OCc2ccc(O)c(O)c2)C(=O)N[C@@H]2C(=O)N3C(C(=O)O)=C(CSc4nnc(-c5ccc(O)c(O)c5)o4)CS[C@H]23)cs1` , tested on K. oxytoca GN10650?
6.25

Could you share what MIC was measured for Nc1nc(/C(=N/OC(C(=O)O)c2ccc(O)c(O)c2)C(=O)N[C@@H]2C(=O)N3C(C(=O)O)=C(CSc4ncc(-c5ccc(O)c(O)c5)o4)CS[C@H]23)cs1 (stereo partly drawn) , tested on K. oxytoca GN10650?
0.2

Could you share what MIC was measured for `CCO/N=C(\C(=O)N[C@@H]1C(=O)N2C(C(=O)O)=C(CSc3nnc(-c4ccc(OC(C)=O)c(OC(C)=O)c4)o3)CS[C@H]12)c1csc(N)n1` , tested on K. oxytoca GN10650?
0.39

Could you share what MIC was measured for `CC(C)(O/N=C(\C(=O)N[C@@H]1C(=O)N2C(C(=O)O)=C(CSc3ncc(-c4ccc(O)c(O)c4)o3)CS[C@H]12)c1csc(N)n1)C(=O)O` , tested on K. oxytoca GN10650?
0.1

Could you share what MIC was measured for `CCO/N=C(\C(=O)N[C@@H]1C(=O)N2C(C(=O)O)=C(CSc3ncc(-c4ccc(OC(C)=O)c(OC(C)=O)c4)o3)CS[C@H]12)c1csc(N)n1` , tested on K. oxytoca GN10650?
1.56

Could you share what MIC was measured for Nc1nc(/C(=N/OC(C(=O)O)c2ccccc2)C(=O)N[C@@H]2C(=O)N3C(C(=O)O)=C(CSc4nnc(-c5ccc(O)c(O)c5)o4)CS[C@H]23)cs1 (stereo partly drawn) [Ex. 15] , tested on K. oxytoca GN10650?
0.0125

Could you share what MIC was measured for CC(C)(O/N=C(\C(=O)N[C@@H]1C(=O)N2C(C(=O)O)=C(CSc3nnc(-c4ccccc4)o3)CS[C@H]12)c1csc(N)n1)C(=O)O [compound 3, reference compound] , tested on K. oxytoca GN10650?
3.12

Could you share what MIC was measured for CO/N=C(\C(=O)N[C@@H]1C(=O)N2C(C(=O)O)=C(CSc3nc(-c4ccc(O)cc4)cs3)CS[C@H]12)c1csc(N)n1 [compound 10, reference compound] , tested on K. oxytoca GN10650?
3.12

Could you share what MIC was measured for Nc1nc(C(=NOCC(=O)O)C(=O)NC2C(=O)N3C(C(=O)O)=C(CSc4nc(-c5ccc(O)c(O)c5)cs4)CSC23)cs1 (stereo not drawn) , tested on K. oxytoca GN10650?
0.39

Could you share what MIC was measured for CON=C(C(=O)NC1C(=O)N2C(C(=O)O)=C(CSc3ncc(-c4ccc(O)c(O)c4)o3)CSC12)c1csc(N)n1 (stereo not drawn) , tested on K. oxytoca GN10650?
3.12

Could you share what MIC was measured for `CC(C)O/N=C(\C(=O)N[C@@H]1C(=O)N2C(C(=O)O)=C(CSc3nnc(-c4ccc(O)c(O)c4)o3)CS[C@H]12)c1csc(N)n1` , tested on K. oxytoca GN10650?
0.1

Could you share what MIC was measured for C=CCON=C(C(=O)NC1C(=O)N2C(C(=O)O)=C(CSc3nc(-c4ccc(O)c(O)c4)cs3)CSC12)c1csc(N)n1 (stereo not drawn) , tested on K. oxytoca GN10650?
3.12
